- Tested system: CaFus1
- Test details: SPOT peptide array binding signal intensity (averaged, normalized) (arbitrary units (background-subtracted, floor 0; scale differs between SH3 domains)); higher = stronger binding of the SH3 domain to the peptide
Measure name: SPOT peptide array binding signal intensity

Before answering, review these 4 worked examples.
{"Binder": "DDEDVPPQLPTRTKS", "Endpoint result": 78}
{"Binder": "DFTLPPPPPPPGLDE", "Endpoint result": "≤ 0"}
{"Binder": "MPAPPPPPPPPPGAF", "Endpoint result": 33}
{"Binder": "RTIRKLPLMSLSEYF", "Endpoint result": 942}

Quick note, SPOT peptide array binding signal intensity for "PELAPKREAPKPPAN" landed at 14

Quick note, SPOT peptide array binding signal intensity for "MTKTPETSPPKRPMG" landed at 55.5

Quick note, SPOT peptide array binding signal intensity for "NMLSRPRLAKLPSIR" landed at 1210
